Overview of reported IC50 across a group of compounds:
Biological target: human neutrophil elastase (Homo sapiens)
Construct: purchased Elastin Products Company
Sequence (P08246 30-267): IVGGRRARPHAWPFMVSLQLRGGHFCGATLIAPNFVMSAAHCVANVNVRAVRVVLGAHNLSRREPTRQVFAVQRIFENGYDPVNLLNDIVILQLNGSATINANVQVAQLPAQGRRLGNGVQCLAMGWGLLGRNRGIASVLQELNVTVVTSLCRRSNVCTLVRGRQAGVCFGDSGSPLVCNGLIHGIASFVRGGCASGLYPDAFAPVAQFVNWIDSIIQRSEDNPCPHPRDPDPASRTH
Assay: Inhibitory action 2 against human neutrophil elastase (Test Example 2; fluorogenic substrate MeOSuc-AAPV-AMC, buffer with 400 mM NaCl, 0.2 mg/ml BSA)
Assay type: biochemical
Conditions: 37° C., read-out: IC50 value (compound concentration required for 50% inhibition of human neutrophil elastase)
Experimental: Assay buffer (0.4 unit/ml HNE (human neutrophil elastase, available from Elastin Products Company), 200 mM HEPES [N-(2-hydroxyethyl)piperazine-N′-(2-ethanesulfonic acid)], pH 7.5, 400 mM NaCl, 0.2 mg/ml BSA (bovine serum albumin)) 100 μl, water for injection 20 μl and 1% DMSO (dimethyl sulfoxide) solution of the present compound 20 μl were mixed in a 96 well plate and the mixed solutions were pre-incubated at 37° C. for five minutes. […]
assay_readout: IC50 (nM)

1. Cc1c(-c2ccnn2-c2ccc(C#N)cc2)c(=O)n([C@H](C)CO)c(=O)n1-c1cccc(C(F)(F)F)c1
4.9
2. Cc1c(-c2c(S(=O)(=O)O)cnn2-c2ccc(C#N)cc2)c(=O)n(C)c(=O)n1-c1cccc(C(F)(F)F)c1 [Example 191]
23.1
3. Cc1c(-c2c(CN3CC(F)(F)C3)cnn2-c2ccc(C#N)cc2)c(=O)n(C)c(=O)n1-c1cccc(C(F)(F)F)c1
22
4. CC(=O)N1CCC(n2c(=O)c(-c3ccnn3-c3ccc(C#N)cc3)c(C)n(-c3cccc(C(F)(F)F)c3)c2=O)CC1
4.5
